src = ChEMBL document CHEMBL1147493

testedSystem: Follicle-stimulating hormone receptor (Homo sapiens, UniProt P23945)
assayExplanation: Agonistic activity in CHO-hFollicle stimulating hormone receptor cell-based cAMP accumulation assay
Format: functional
valueType: EC50 (nM)
Lab book: enter the figure in nM, no units written.

# EC50 of CCCCCCCN1C(=O)[C@H](Cc2ccc(-c3cc(OC)c(OC)c(OC)c3)cc2)N(C)C(=O)[C@@H]1C = 32

###

testedSystem: Follicle-stimulating hormone receptor (Homo sapiens)
Sequence (P23945 whole entry): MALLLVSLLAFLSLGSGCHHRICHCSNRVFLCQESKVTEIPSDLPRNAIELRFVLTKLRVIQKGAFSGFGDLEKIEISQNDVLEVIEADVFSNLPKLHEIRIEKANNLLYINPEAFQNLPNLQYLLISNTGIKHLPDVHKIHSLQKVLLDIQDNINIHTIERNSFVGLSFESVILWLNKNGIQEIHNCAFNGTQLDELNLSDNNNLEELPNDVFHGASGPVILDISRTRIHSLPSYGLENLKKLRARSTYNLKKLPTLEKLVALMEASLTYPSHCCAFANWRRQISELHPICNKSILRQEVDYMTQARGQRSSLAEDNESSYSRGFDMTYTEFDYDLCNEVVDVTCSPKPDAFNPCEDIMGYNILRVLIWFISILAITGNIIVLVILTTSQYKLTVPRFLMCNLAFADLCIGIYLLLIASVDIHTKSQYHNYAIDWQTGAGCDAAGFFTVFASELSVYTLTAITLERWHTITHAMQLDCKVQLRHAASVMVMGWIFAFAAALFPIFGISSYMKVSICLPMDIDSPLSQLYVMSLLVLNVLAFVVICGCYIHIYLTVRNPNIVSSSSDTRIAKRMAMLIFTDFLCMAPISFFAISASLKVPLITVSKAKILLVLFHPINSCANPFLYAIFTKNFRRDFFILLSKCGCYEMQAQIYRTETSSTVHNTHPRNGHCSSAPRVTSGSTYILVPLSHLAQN
assayExplanation: Agonistic activity against human follicle stimulating hormone receptor in CHO-hFSHR-luciferase assay.
Type: functional
So basically: is EC50 under 100 nM? Then Met. Not under? Then Not met.

{"columns": ["compoundString", "answerLabel"],
 "data": [
  ["CCCCCCCN1CC(=O)N(C)[C@@H](Cc2ccc(-c3cc(OC)c(OC)c(OC)c3)cc2)C1=O", "Not met"]
]}

Determine whether this compound shows EC50 lower than 100 nM (ties excluded): CCCCCN1CC(=O)N(C)[C@@H](Cc2ccc(-c3cc(OC)c(OC)c(OC)c3)cc2)C1=O
Not met

Determine whether this compound shows EC50 lower than 100 nM (ties excluded): CCCCCCNC(=O)CN1CC(=O)N(C)[C@@H](Cc2ccc(-c3cc(OC)c(OC)c(OC)c3)cc2)C1=O
Met

Determine whether this compound shows EC50 lower than 100 nM (ties excluded): CCCCCCCCN1C(=O)[C@H](Cc2ccc(-c3cccc(CN(CCCC)C(C)=O)c3)cc2)N(C)C(=O)[C@@H]1C
Met

###

testedSystem: Follicle-stimulating hormone receptor (Homo sapiens)
assayExplanation: Agonistic activity in CHO-hFSHR cell-based cAMP accumulation assay
Format: functional
Listed here are compounds together with their documented EC50.
Lab book: enter the figure in nM, no units written.

Study these solved cases before continuing.
{"columns": ["compoundString", "valueType", "unit", "assayValue"],
 "data": [
  ["CCCCCCCCN1C(=O)[C@H](Cc2ccc(-c3cccc(CN(CCCC)C(=O)OC)c3)cc2)N(C)C(=O)[C@@H]1C", "EC50", "nM", 31],
  ["CCCCCCN1C(=O)[C@H](Cc2ccc(-c3cccc(CN(CCCC)C(=O)NC)c3)cc2)N(C)C(=O)[C@@H]1C", "EC50", "nM", 9.5],
  ["CCCCCCCCN1C(=O)[C@H](Cc2ccc(-c3cccc(CN(CCCC)C(C)=O)c3)cc2)N(C)C(=O)[C@@H]1C", "EC50", "nM", 35],
  ["CCCCCCCCN1C(=O)[C@H](Cc2ccc(-c3cccc(CN(CCCC)C(=O)NC)c3)cc2)N(C)C(=O)[C@@H]1C", "EC50", "nM", 7.9]
]}

Now for a further compound.
# EC50 of CCCCCCCCN1C(=O)[C@H](Cc2ccc(-c3cc(OC)c(OC)c(OC)c3)cc2)N(C)C(=O)[C@@H]1C = 32
